Target: T1, Recombinant human VEGF165 (human, UniProt P15692-4, strain)
T1 construct: also called human vascular endothelial growth factor-A; VEGF-A165; source: bought: Shanghai Primegene Bio-Tech Co. and R&D System
T1 sequence (P15692 whole entry, looked up, change not shown): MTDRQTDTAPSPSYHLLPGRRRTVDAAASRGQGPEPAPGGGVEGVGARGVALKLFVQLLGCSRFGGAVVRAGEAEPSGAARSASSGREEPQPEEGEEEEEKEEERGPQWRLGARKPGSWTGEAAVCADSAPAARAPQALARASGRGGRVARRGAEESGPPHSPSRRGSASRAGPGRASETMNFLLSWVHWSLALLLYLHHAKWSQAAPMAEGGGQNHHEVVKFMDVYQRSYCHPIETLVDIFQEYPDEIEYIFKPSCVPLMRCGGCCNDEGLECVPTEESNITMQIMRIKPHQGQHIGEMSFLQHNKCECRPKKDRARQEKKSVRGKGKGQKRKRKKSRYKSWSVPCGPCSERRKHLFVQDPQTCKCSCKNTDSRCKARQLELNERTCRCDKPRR
Test: ELISA; antigen binding ELISA with the antigen coated on a 96-well plate; paired H and L chains of the 15 antibodies; grades against background reading
OBSERVABLE: binding result

[[record]]
binder = "heavy chain of EBV307 paired with light chain of EBV302 (antibody, V domains shown, also called 307H/302L) VH: QSVEESGGGLVKPGGTLTLTCTVSGFSFSNNDVMCWVRQAPGKGLEWIGCIMTTDVVTAYANWAKSRFTVSRTSSTTVTLQVTSLTVADTATYFCARDSVGSPLMSFDLWGPGTLVTVSS VL: LVMTQTPASVSAAVGGTVIINCQASQNLYNNNELSWYQQKPGQPPKLLIYWASTLASGVPSRFKGSGSGTQFTLTISGVQCADAATYYCAGYKSYSNGGNGFGGGTEVVVK"
observable = "binding result"
result_value = "binds"

[[record]]
binder = "heavy chain of EBV320 paired with light chain of EBV321 (antibody, V domains shown, also called 320H/321L) VH: QSLEESGGDLVKPGASLTLTCTASGFSFSNNAVMCWVRQAPGKGLEWIGCIMTTDVVTEYANWAKSRFTVSKTSSTTVTLQMTSLTVADTATYFCARDSVGSPLMSFDLWGPGTLVTVSS VL: LVMTQTPASVSAAVGGTVTINCQASQSVYGNNELSWYQQKPGQPPKLLIYRASTLASGVPSRFSGSGSGTQFTLTISGVQCADAATYYCGGYKSYSNDGNGFGGGTEVVVK"
observable = "binding result"
result_value = "binds"


The measured values listed here are drawn from paper PMC2816707.
